molecular target: full-length beta-Catenin (Uniprot ID P35222) (Homo sapiens, UniProt P35222); construct: 10 nM full-length beta-Catenin (Uniprot ID P35222); experiment: Fluorescence polarization IC50 (beta-catenin / 5FAM-TCF4 10-53 competition); format: binding; conditions: fluorescence polarization, beta-catenin; read-out: FP EC50
Sequence (P35222 whole entry): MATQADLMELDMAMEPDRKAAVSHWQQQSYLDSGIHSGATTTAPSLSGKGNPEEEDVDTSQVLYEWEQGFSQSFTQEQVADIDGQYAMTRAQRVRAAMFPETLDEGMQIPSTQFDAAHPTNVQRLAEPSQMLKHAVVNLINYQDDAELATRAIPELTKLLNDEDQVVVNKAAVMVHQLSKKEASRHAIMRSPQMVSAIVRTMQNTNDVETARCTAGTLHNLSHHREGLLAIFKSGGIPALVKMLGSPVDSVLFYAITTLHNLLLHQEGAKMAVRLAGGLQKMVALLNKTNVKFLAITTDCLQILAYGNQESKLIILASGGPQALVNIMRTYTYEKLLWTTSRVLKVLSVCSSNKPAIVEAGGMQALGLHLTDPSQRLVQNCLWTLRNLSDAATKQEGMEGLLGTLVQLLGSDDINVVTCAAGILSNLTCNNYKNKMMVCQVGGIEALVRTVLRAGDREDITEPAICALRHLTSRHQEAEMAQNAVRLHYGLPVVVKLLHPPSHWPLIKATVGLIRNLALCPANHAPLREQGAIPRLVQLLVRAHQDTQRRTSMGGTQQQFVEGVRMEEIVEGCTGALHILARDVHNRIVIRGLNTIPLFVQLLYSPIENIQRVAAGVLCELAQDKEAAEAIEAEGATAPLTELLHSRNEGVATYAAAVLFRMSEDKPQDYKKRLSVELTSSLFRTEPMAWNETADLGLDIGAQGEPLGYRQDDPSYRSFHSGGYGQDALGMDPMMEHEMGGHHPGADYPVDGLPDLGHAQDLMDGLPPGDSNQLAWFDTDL
reported_property: IC50 (nM)
Answer with a number only, understood to be in nM.

CC(=O)N1CCC[C@]12CC=CCCCC1(CCCC=CCCCCOC(=O)N3CC[C@@](C(=O)N[C@@H](Cc4ccsc4)C(=O)N[C@@H](Cc4csc5ccccc45)C(=O)N[C@@H](CCC(N)=O)C(=O)N[C@@H](C)C(N)=O)(C3)NC(=O)[C@H](CC(N)=O)NC(=O)[C@H](Cc3ccccc3)NC(=O)[C@H](C)NC(=O)[C@H](C)NC(=O)[C@H](CC(=O)O)NC(=O)[C@H](CC(=O)O)NC1=O)NC(=O)[C@H](CC(C)(C)C)NC(=O)[C@H](CC(=O)O)NC2=O (stereo partly drawn) [I-825] ... 15

Query string: So what's the measured IC50 for this one? CC(=O)N1CCC[C@]12CC=CCCCC1(CCCC=CCCCCCC[C@@](C)(C(=O)N[C@@H](Cc3ccccc3)C(=O)N[C@@H](Cc3csc4ccccc34)C(=O)N[C@@H](CCC(N)=O)C(N)=O)NC(=O)[C@H](CCC(N)=O)NC(=O)[C@H](Cc3cccc(C(F)(F)F)c3)NC(=O)[C@H](C)NC(=O)[C@H](C)NC(=O)[C@H](CC(=O)O)NC(=O)[C@H](CC(=O)O)NC1=O)NC(=O)[C@H](C)NC(=O)[C@H](CC(=O)O)NC2=O (stereo partly drawn) [I-379]
Result string: 1340

Query string: Check CC(=O)N1CCC[C@]12CC=CCCCC1(CCCC=CCCCOC(=O)N3CC[C@@](C(=O)N[C@@H](Cc4ccsc4)C(=O)N[C@@H](Cc4csc5ccccc45)C(=O)N[C@@H](CO)C(N)=O)(C3)NC(=O)[C@H]([C@@H](C)O)NC(=O)[C@H](Cc3ccccc3)NC(=O)[C@H](C)NC(=O)[C@H](C)NC(=O)[C@H](CN(CC(=O)O)CC(F)(F)F)NC(=O)[C@H](CC(=O)O)NC1=O)NC(=O)[C@H](CC(C)(C)C)NC(=O)[C@H](CC(=O)O)NC2=O (stereo partly drawn) [I-957] too.
Result string: 1430

====

test: Solubility in PBS; type: physicochemical
reported_property: Solubility (µM)
I only need the number, in µM, no unit after it.

Here is how some compounds turned out for Solubility.
CC(=O)N1CCC[C@]12CC=CCCCC1(CCCC=CCCCOC(=O)N3CC[C@@](C(=O)N[C@@H](Cc4ccccc4Cl)C(=O)N[C@@H](Cc4csc5ccccc45)C(=O)N[C@@H](CCC(N)=O)C(N)=O)(C3)NC(=O)[C@H](CC(C)C)NC(=O)[C@H](Cc3ccccc3)NC(=O)[C@H](C)NC(=O)[C@H](C)NC(=O)[C@H](CC(=O)O)NC(=O)[C@H](CC(=O)O)NC1=O)NC(=O)[C@H](CC1CCCCC1)NC(=O)[C@H](CC(=O)O)NC2=O (some centres unmarked) [I-1075] ... 17
CC(=O)N1CCC[C@]12CC=CCCCC1(CCCC=CCCCOC(=O)N3CC[C@@](C(=O)N[C@@H](Cc4ccccc4)C(=O)N[C@@H](Cc4ccc5ccccc5c4)C(=O)N[C@@H](CCC(N)=O)C(N)=O)(C3)NC(=O)[C@H](CC(C)C)NC(=O)[C@H](Cc3ccccc3)NC(=O)[C@H](C)NC(=O)[C@H](C)NC(=O)[C@H]([C@@H](C)O)NC(=O)[C@H](CC(=O)O)NC1=O)NC(=O)[C@H](CC(C)(C)C)NC(=O)[C@H](CC(N)=O)NC2=O (single isomer, unassigned) [I-1292] ... 10
CC(=O)N1CCC[C@]12CC=CCCCC1(CCCC=CCCCCCC[C@@](C)(C(=O)N[C@@H](Cc3ccccc3)C(=O)N[C@@H](Cc3csc4ccccc34)C(=O)N[C@@H](CCC(N)=O)C(N)=O)NC(=O)[C@H](CC(N)=O)NC(=O)[C@H](Cc3ccccc3)NC(=O)[C@H](C)NC(=O)[C@H](C)NC(=O)[C@H](CCC(=O)O)NC(=O)[C@H](CNS(C)(=O)=O)NC1=O)NC(=O)[C@H](C)NC(=O)[C@H](CC(=O)O)NC2=O (some centres unmarked) [I-530] ... 50
CC(=O)N1CCC[C@]12CC=CCCCC1(CCCC=CCCCOC(=O)N3CC[C@@](C(=O)N[C@@H](Cc4ccsc4)C(=O)N[C@@H](Cc4csc5ccccc45)C(=O)N[C@@H](CCC(N)=O)C(N)=O)(C3)NC(=O)[C@H](CC(C)C)NC(=O)[C@H](Cc3ccccc3)NC(=O)C(C)(C)NC(=O)C(C)(C)NC(=O)[C@H](CC(=O)O)NC(=O)[C@H](CC(=O)O)NC1=O)NC(=O)[C@H](CC(C)(C)C)NC(=O)[C@H](CC(=O)O)NC2=O (some centres unmarked) [I-1180] ... 31

Query string: Look up Solubility for this compound: CC(=O)N1CCC[C@]12CC=CCCCC1(CCCC=CCCCOC(=O)N3CC[C@@](C(=O)N[C@@H](Cc4ccsc4)C(=O)N[C@@H](Cc4csc5ccccc45)C(=O)N[C@@H](CCO)C(N)=O)(C3)NC(=O)[C@H](CC(N)=O)NC(=O)[C@H](Cc3ccccc3)NC(=O)[C@H](C)NC(=O)[C@H](C)NC(=O)[C@H](CN(CC(=O)O)CC(F)(F)F)NC(=O)[C@H](CC(=O)O)NC1=O)NC(=O)[C@H](CC(C)(C)C)NC(=O)[C@H](CC(=O)O)NC2=O (some centres unmarked) [I-951]
Result string: 47

====

Parameter CHI Log D: see the listing below.
assay: CHI Log D procedure; assay type: physicochemical; details: pH 7.4
Just the number, please, no unit after it.

Examples with their reported CHI Log D follow.
CC(=O)N1CCC[C@]12CC=CCCCC1(CCCC=CCCCCCC[C@@](C)(C(=O)N[C@@H](Cc3ccsc3)C(=O)N[C@@H](Cc3csc4ccccc34)C(=O)N[C@@H](CCC(N)=O)C(N)=O)NC(=O)[C@H](CC(N)=O)NC(=O)[C@H](Cc3ccccc3)NC(=O)[C@H](C)NC(=O)[C@H](C)NC(=O)[C@H](CC(=O)O)NC(=O)[C@H](CC(=O)O)NC1=O)NC(=O)[C@H](CC(C)C)NC(=O)[C@H](CC(=O)O)NC2=O (stereo partly shown) [I-681] ... 2.273
CC[C@H](C)[C@@H]1NC(=O)[C@H](CC(=O)O)NC(=O)[C@]2(CC=CCCCC3(CCCC=CCCCCCC[C@@](C)(C(=O)N[C@@H](Cc4ccsc4)C(=O)N[C@@H](Cc4csc5ccccc45)C(=O)N[C@@H](CCC(N)=O)C(N)=O)NC(=O)[C@H](CC(N)=O)NC(=O)[C@H](Cc4ccccc4)NC(=O)[C@H](C)NC(=O)[C@H](C)NC(=O)[C@H](CCC(=O)O)NC(=O)[C@H](CC(=O)O)NC3=O)NC1=O)CCCN2C(C)=O (stereo partly shown) [I-521] ... 2.351
CC(=O)N1CCC[C@]12CC=CCCCC1(CCCC=CCCCOC(=O)N3CC[C@@](C(=O)N[C@@H](Cc4ccccc4Cl)C(=O)N[C@@H](Cc4csc5ccccc45)C(=O)N[C@@H](CO)C(N)=O)(C3)NC(=O)[C@H](CC(C)C)NC(=O)[C@H](Cc3ccccc3)NC(=O)[C@H](C)NC(=O)[C@H](C)NC(=O)[C@H](CCC(=O)O)NC(=O)[C@H](CC(=O)O)NC1=O)NC(=O)[C@H](CC(C)(C)C)NC(=O)[C@H](CC(=O)O)NC2=O (stereo partly shown) [I-1066] ... 2.024
CC[C@H](C)[C@@H]1NC(=O)[C@H](CC(=O)O)NC(=O)[C@]2(CC=CCCCC3(CCCC=CCCCCCC[C@@](C)(C(=O)N[C@@H](Cc4ccccc4)C(=O)N[C@@H](Cc4c[nH]c5ccccc45)C(N)=O)NC(=O)[C@H](CCC(N)=O)NC(=O)[C@H](Cc4ccccc4)NC(=O)[C@H](C)NC(=O)[C@H](C)NC(=O)[C@H](CCC(=O)O)NC(=O)[C@H](CC(=O)O)NC3=O)NC1=O)CCCN2C(C)=O (stereo partly shown) [I-193] ... 2.462
CC(=O)N[C@@H](Cc1ccccc1)C(=O)N[C@@H](CC(=O)O)C(=O)N[C@@H](C)C(=O)N[C@]1(C)CN(C)C(=O)OCC=CCCCCC[C@@](C)(C(=O)N[C@@H](Cc2ccccc2)C(=O)N[C@@H](Cc2c[nH]c3ccccc23)C(=O)N[C@@H](CCC(N)=O)C(N)=O)NC(=O)[C@H](C(C)C)NC(=O)[C@H](Cc2ccccc2)NC(=O)[C@H](C)NC(=O)[C@H](C)NC(=O)[C@H](CC(=O)O)NC(=O)[C@H](CC(=O)O)NC1=O (single isomer, unassigned) ... 1.205
CC(=O)N[C@@H](Cc1ccccc1)C(=O)N[C@@H](CC(=O)O)C(=O)N[C@@H](C)C(=O)N[C@]1(C)CCCCCCC=CCOC(=O)N2CC(C(=O)N[C@@H](Cc3ccccc3)C(=O)N[C@@H](Cc3c[nH]c4ccccc34)C(=O)N[C@@H](CCC(N)=O)C(N)=O)(C2)NC(=O)[C@H](C(C)C)NC(=O)[C@H](Cc2ccccc2)NC(=O)[C@H](C)NC(=O)[C@H](C)NC(=O)[C@H](CC(=O)O)NC(=O)[C@H](CC(=O)O)NC1=O (single isomer, unassigned) ... 1.243
CC(=O)N1CCC[C@]12CC=CCCCC1(CCCC=CCCCOC(=O)N3CC[C@@](C(=O)N[C@@H](Cc4ccsc4)C(=O)N[C@@H](Cc4csc5ccccc45)C(=O)N[C@@H](CC(C)C)C(N)=O)(C3)NC(=O)[C@H](CC(N)=O)NC(=O)[C@H](Cc3ccccc3)NC(=O)[C@H](C)NC(=O)[C@H](C)NC(=O)[C@H](CN(CC(=O)O)CC(F)(F)F)NC(=O)[C@H](CC(=O)O)NC1=O)NC(=O)[C@H](CC(C)(C)C)NC(=O)[C@H](CC(=O)O)NC2=O (stereo partly shown) [I-946] ... 2.209
COc1ccccc1C[C@H](NC(=O)[C@]1(C)CCCCCCC=CCCCC2(CCCC=CC[C@]3(CCCN3C(C)=O)C(=O)N[C@@H](CC(=O)O)C(=O)N[C@@H](C)C(=O)N2)C(=O)N[C@@H](CC(=O)O)C(=O)N[C@@H](CCC(=O)O)C(=O)N[C@@H](C)C(=O)N[C@@H](C)C(=O)N[C@@H](Cc2ccccc2)C(=O)N[C@@H](CC(N)=O)C(=O)N1)C(=O)N[C@@H](Cc1csc2ccccc12)C(=O)N[C@@H](Cc1c[nH]cn1)C(N)=O (stereo partly shown) [I-511] ... 2.099

Query string: Requested read-out: CHI Log D. Entry: CC(=O)N[C@@H](Cc1ccccc1)C(=O)N[C@@H](CC(=O)O)C(=O)N[C@@H](C)C(=O)NC12CN(C1)C(=O)OCC=CCCCCC[C@@](C)(C(=O)N[C@@H](Cc1ccccc1)C(=O)N[C@@H](Cc1c[nH]c3ccccc13)C(=O)N[C@@H](CCC(N)=O)C(N)=O)NC(=O)[C@H](C(C)C)NC(=O)[C@H](Cc1ccccc1)NC(=O)[C@H](C)NC(=O)[C@H](C)NC(=O)[C@H](CC(=O)O)NC(=O)[C@H](CC(=O)O)NC2=O [I-32]
Result string: 1.243

Query string: Next compound: CC(=O)N1CCC[C@]12CC=CCCCC1(CCCC=CCCCCCC[C@@](C)(C(=O)N[C@@H](Cc3ccccc3)C(=O)N[C@@](C)(Cc3c[nH]c4ccccc34)C(=O)N[C@@H](CCC(N)=O)C(N)=O)NC(=O)[C@H](C(C)C)NC(=O)[C@H](Cc3ccccc3)NC(=O)[C@H](C)NC(=O)[C@H](C)NC(=O)[C@H](CCC(=O)O)NC(=O)[C@H](CC(=O)O)NC1=O)NC(=O)[C@H](C)NC(=O)[C@H](CC(=O)O)NC2=O (stereo partly shown) [I-136]
Result string: 2.136
